- testedSystem: Mu-type opioid receptor (Cavia porcellus, UniProt P97266)
- Sequence (P97266 whole entry): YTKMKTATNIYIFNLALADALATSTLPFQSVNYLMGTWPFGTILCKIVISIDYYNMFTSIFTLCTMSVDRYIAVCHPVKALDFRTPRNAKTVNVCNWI
- assayComment: Agonist activity at mu-opioid receptor in guinea pig ileum assessed as inhibition of electrically induced contractions
- Format: functional
Recorded pIC50 values for a group of compounds are listed next.
// scale note: pIC50 = -log10(conc_M); give the bare number

// pIC50 value for Cc1cc(O)cc(C)c1C[C@H](N)C(=O)N(C)[C@H](C)C(=O)N[C@H]1Cc2c(ccc3ccccc23)CN(CC(N)=O)C1=O : 9.37

// pIC50 value for C[C@@H](NC(=O)[C@@H](N)Cc1ccc(O)cc1)C(=O)N[C@H]1Cc2ccccc2CN(CC(N)=O)C1=O : 7.30
